target: UniProtKB Q8NEB9; assay: Biochemical Vps34 lipid kinase assay (ADP-Glo); settings: 1 h, single dose 1 μM compound; residual activity compared to control (DMSO); read-out: VPS34_1microM_% of cntrl
Sequence (Q8NEB9 whole entry, species assumed): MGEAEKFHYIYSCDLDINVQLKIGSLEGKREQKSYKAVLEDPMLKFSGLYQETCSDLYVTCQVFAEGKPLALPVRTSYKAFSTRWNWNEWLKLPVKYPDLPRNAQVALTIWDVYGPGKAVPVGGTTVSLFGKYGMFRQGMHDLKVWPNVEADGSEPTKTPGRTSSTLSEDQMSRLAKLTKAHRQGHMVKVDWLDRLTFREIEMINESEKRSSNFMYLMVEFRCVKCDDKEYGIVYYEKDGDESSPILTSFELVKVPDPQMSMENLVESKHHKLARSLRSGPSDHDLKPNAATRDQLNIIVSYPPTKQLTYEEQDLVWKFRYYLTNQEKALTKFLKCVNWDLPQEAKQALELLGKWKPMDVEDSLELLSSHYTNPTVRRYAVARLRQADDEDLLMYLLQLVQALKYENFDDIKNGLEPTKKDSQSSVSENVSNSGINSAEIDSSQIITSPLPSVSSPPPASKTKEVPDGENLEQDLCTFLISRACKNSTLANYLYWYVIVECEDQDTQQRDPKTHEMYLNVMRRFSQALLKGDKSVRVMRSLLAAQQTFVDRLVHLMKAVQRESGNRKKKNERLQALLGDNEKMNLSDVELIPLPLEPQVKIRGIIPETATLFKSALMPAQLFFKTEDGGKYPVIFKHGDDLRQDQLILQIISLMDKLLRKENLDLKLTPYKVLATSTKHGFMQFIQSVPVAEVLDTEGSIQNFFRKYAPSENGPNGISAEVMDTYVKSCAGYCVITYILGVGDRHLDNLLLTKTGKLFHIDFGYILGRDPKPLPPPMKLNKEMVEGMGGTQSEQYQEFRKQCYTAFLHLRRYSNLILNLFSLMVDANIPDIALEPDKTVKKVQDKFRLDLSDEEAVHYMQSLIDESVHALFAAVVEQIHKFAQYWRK
Please use yes for remaining activity at 1 µM under 10% and no for everything else, ties included.

>>> print(df.to_string())
                                    compound  group_label
 0  O=C1CN2CCN(CC2)Cc2cccc(c2)Nc2nccc(n2)-c2ccc(nc2)NCC(O)CN1 (single isomer, unassigned) [Compound 25]          yes
 1  CN1CCCN(C)c2ccc(cn2)-c2ccnc(n2)Nc2cc(F)cc(c2)CN2CCN(CC2)CC1=O [Compound 6]           no
 2  CN1CCCN(C)c2ccc(cn2)-c2ccnc(n2)Nc2cccc(c2)CN2CCN(CC1=O)CC2COCCO (single isomer, unassigned) [Compound 104]           no
 3  CC1CN2CCN1Cc1cccc(c1)Nc1nccc(n1)-c1ccc(nc1)NCCCNC(=O)C2 (stereo not shown) [Compound 60]          yes
 4  CN1CCCNC(=O)CN2CCN(CC2=O)Cc2cccc(c2)Nc2nccc(n2)-c2ccc1nc2 [Compound 78]          yes
 5  O=C1CN2CCN(Cc3cccc(c3)Nc3nccc(n3)-c3ccc(nc3)NCCCN1)C(CO)C2 (stereo not shown) [Compound 46]          yes
 6  CNC(=O)c1ccc2cc1CN1CCN(CC1)CC(=O)NCCCNc1ccc(cn1)-c1ccnc(n1)N2 [Compound 13]          yes
 7  CC1CN2CCN1CC(=O)NCCCNc1ccc(cn1)-c1ccnc(n1)Nc1cccc(c1)C2 (stereo not shown) [Compound 49]           no
 8  CN1CCCN(C)c2ccc(cn2)-c2ccnc(n2)Nc2cccc(c2)S(=O)(=O)N2CCN(CC2)CC1=O [Compound 27]           no
 9  O=C1CN2CCN(CC2)Cc2cccc(c2)Nc2nccc(n2)-c2ccc(nc2)NC(=O)CCN1 [Compound 85]           no
10  O=C1CN2CCN(CC2)Cc2cc(Cl)cc(c2)Nc2nccc(n2)-c2ccc(nc2)NCCCN1 [Compound 9]          yes
11  CN1CCCNC(=O)CC2CCN(CC2)Cc2cccc(c2)Nc2nccc(n2)-c2ccc1nc2 [Compound 125]           no
12  CCCN1CCNC(=O)CN2CCN(CC2)Cc2cccc(c2)Nc2nccc(n2)-c2ccc(nc2)C1 [Compound 43]          yes
13  CN1CCCN(C)c2ccc(cn2)-c2ccnc(n2)Nc2cccc(c2)CN2CCN(CC2)C(=O)C1 [Compound 83]          yes
14  O=C1CN2CCN(CC2)Cc2cccc(c2)Nc2nccc(n2)-c2ccc(nc2)CN(CC2CCCO2)CCN1 (stereo not shown) [Compound 40]           no
15  CC(C)N1CCN(C(C)C)c2ccc(cn2)-c2ccnc(n2)Nc2cccc(c2)CN2CCN(CC2)CC1=O [Compound 121]           no
16  CN(C)C(=O)c1ccc2cc1CN1CCN(CC1)CC(=O)NCCCNc1ccc(cn1)-c1ccnc(n1)N2 [Compound 18]           no
17  CN1CCCN(C)c2ccc(cn2)-c2ccnc(n2)Nc2cccc(c2)CN2CCN(C)C(C2)C1=O (stereo not shown) [Compound 75]           no
18  O=C1CN2CCN(CC2)Cc2cccc(c2F)Nc2nccc(n2)-c2ccc(nc2)NCCCN1 [Compound 4]           no
19  CN1CCCN(C)c2ccc(cn2)-c2ccnc(n2)Nc2cccc(c2)CN2CCNC(CC1=O)C2 (stereo not shown) [Compound 128]          yes
20  CC1CN2CCN1Cc1cccc(c1)Nc1nccc(n1)-c1ccc(nc1)N(C)CCCN(C)C(=O)C2 (stereo not shown) [Compound 58]           no
21  CN1CCCN(C)c2ccc(cn2)-c2ccnc(n2)Nc2cccc(c2)CN2CCN(CC1=O)C(=O)C2 [Compound 82]           no
22  CN1CCCN(C)c2ccc(cn2)-c2ccnc(n2)Nc2cccc(c2)CN2CCN(CC1=O)CC2CO (single isomer, unassigned) [Compound 52]           no
23  CN1CCN(C)c2ccc(cn2)-c2ccnc(n2)Nc2cccc(c2)CN2CCN(C)C(CC1=O)C2 (stereo not shown) [Compound 73]           no
24  O=C1CN2CCN(CC2)Cc2cc(ccc2C(=O)O)Nc2nccc(n2)-c2ccc(nc2)NCCCN1 [Compound 16]           no
25  O=C1CN2CCC(CC2)Cc2cccc(c2)Nc2nccc(n2)-c2ccc(nc2)NCCCN1 [Compound 115]          yes
26  O=C1CN2CCN(CC2)Cc2cccc(c2)Nc2nccc(n2)-c2ccc(nc2)NCC(O)CN1 (stereo not shown) [Compound 23]          yes
27  CN1CCCN(C)c2ccc(cn2)-c2ccnc(n2)Nc2ccc(C(=O)O)c(c2)CN2CCN(CC2)CC1=O [Compound 11]           no
